Consider the following compounds and their measured growth inhibition by drug alone readings.
Tested on: RIVA
Test: growth inhibition by drug alone (1 - RLU/untreated control) (fraction); higher = stronger inhibition
Conditions: 10 nM; time (day): 6; 177Lu-lilotomab satetraxetan 0 ug/ml
readout-label: growth inhibition by drug alone

[[record]]
compound = "COc1cc2c(N3CCN(C(=O)Nc4ccc(OC(C)C)cc4)CC3)ncnc2cc1OCCCN1CCCCC1"
recorded_value = -0.222

[[record]]
compound = "NC(=O)c1ccc2nc(-c3ccc(Oc4ccc(Cl)cc4)cc3)[nH]c2c1"
recorded_value = -0.24

[[record]]
compound = "CC(NC(=O)c1ccccc1/N=C/c1c(O)ccc2ccccc12)c1ccccc1 (stereo not given)"
recorded_value = -0.367

[[record]]
compound = "CCN(CC)C(=S)SSC(=S)N(CC)CC"
recorded_value = -0.282

[[record]]
compound = "Cc1[nH]c(/C=C2\\C(=O)Nc3ccc(S(=O)(=O)N(C)c4cccc(Cl)c4)cc32)c(C)c1C(=O)N1CCN(C)CC1"
recorded_value = -0.352


---

System: RIVA
Assay: growth inhibition by drug plus 177Lu-lilotomab satetraxetan (1 - RLU/untreated control) (fraction); higher = stronger inhibition
Conditions: 10 nM; time (day): 5; 177Lu-lilotomab satetraxetan 0.5 ug/ml
Consider the following compounds and their measured growth inhibition by drug plus 177Lu-lilotomab satetraxetan readings.
readout-label: growth inhibition by drug plus 177Lu-lilotomab satetraxetan

[[record]]
compound = "CC(C=CC(=O)NO)=CC(C)C(=O)c1ccc(N(C)C)cc1 (stereo unspecified) [Trichostatin A (TSA)]"
recorded_value = 0.547

[[record]]
compound = "NC(=O)c1ccc(I)c([N+](=O)[O-])c1 [Iniparib (BSI-201)]"
recorded_value = 0.504

[[record]]
compound = "O=C(O[C@@H]1Cc2c(O)cc(O)cc2O[C@@H]1c1cc(O)c(O)c(O)c1)c1cc(O)c(O)c(O)c1 [(-)-Epigallocatechin gallate]"
recorded_value = 0.55

[[record]]
compound = "CC(C)CC(=O)Nc1n[nH]c2c1CN(C(=O)C1CCN(C)CC1)C2(C)C"
recorded_value = 0.533

[[record]]
compound = "CCCS(=O)(=O)Nc1ccc(F)c(C(=O)c2c[nH]c3ncc(-c4ccc(Cl)cc4)cc23)c1F [Vemurafenib (PLX4032)]"
recorded_value = 0.561

[[record]]
compound = "CN(C)c1ccccc1CN1CCCN(Cc2ccccc2N(C)C)C1c1ccncc1"
recorded_value = 0.537

[[record]]
compound = "Cc1ccc(-c2csc3ncnc(SCCC(=O)O)c23)cc1"
recorded_value = 0.522

[[record]]
compound = "CC(NC(=O)c1ccccc1/N=C/c1c(O)ccc2ccccc12)c1ccccc1 (stereo unspecified) [Sirtinol]"
recorded_value = 0.506

[[record]]
compound = "CC(=O)c1c(C)c2cnc(Nc3ccc(N4CCNCC4)cn3)nc2n(C2CCCC2)c1=O"
recorded_value = 0.548

[[record]]
compound = "O=c1cc(-c2cccc3c2Sc2ccccc2S3)oc(N2CCOCC2)c1"
recorded_value = 0.522

[[record]]
compound = "CS(=O)(=O)CCNCc1ccc(-c2ccc3ncnc(Nc4ccc(OCc5cccc(F)c5)c(Cl)c4)c3c2)o1 [Lapatinib Ditosylate (Tykerb)]"
recorded_value = 0.672

[[record]]
compound = "CCC(C)(C)C(=O)O[C@H]1C[C@@H](C)C=C2C=C[C@H](C)[C@H](CC[C@@H]3C[C@@H](O)CC(=O)O3)[C@H]21 [Simvastatin (Zocor)]"
recorded_value = 0.575

[[record]]
compound = "O=c1oc2c(O)c(O)cc3c(=O)oc4c(O)c(O)cc1c4c23 [Ellagic acid]"
recorded_value = 0.517

[[record]]
compound = "COc1cc(Nc2ncc(F)c(Nc3ccc4c(n3)NC(=O)C(C)(C)O4)n2)cc(OC)c1OC [R406(free base)]"
recorded_value = 0.602

[[record]]
compound = "C[C@]12CC[C@@H]3c4ccc(O)cc4C[C@@H](CCCCCCCCC[S+]([O-])CCCC(F)(F)C(F)(F)F)[C@H]3[C@@H]1CC[C@@H]2O (stereo partly specified)"
recorded_value = 0.523

[[record]]
compound = "CC#C[C@]1(O)CC[C@H]2[C@@H]3CCC4=CC(=O)CCC4=C3[C@@H](c3ccc(N(C)C)cc3)C[C@@]21C [Mifepristone (Mifeprex)]"
recorded_value = 0.486


---

Consider the following compounds and their measured growth inhibition by drug alone readings.
Test system: U-2932
Assay: growth inhibition by drug alone (1 - RLU/untreated control) (fraction); higher = stronger inhibition
Settings: 10 nM; time (day): 5; 177Lu-lilotomab satetraxetan 0 ug/ml
readout-label: growth inhibition by drug alone

[[record]]
compound = "CNCc1ccc(-c2[nH]c3cc(F)cc4c3c2CCNC4=O)cc1"
recorded_value = 0.0443

[[record]]
compound = "C[C@]12CC[C@H](O)CC1=CC[C@@H]1[C@@H]2CC[C@]2(C)C(c3cccnc3)=CC[C@@H]12"
recorded_value = -0.102

[[record]]
compound = "CN(CCOc1ccc(CC2SC(=O)NC2=O)cc1)c1ccccn1 (centres undefined)"
recorded_value = -0.0298

[[record]]
compound = "c1ccc(-c2nn3c(c2-c2ccnc4cc(OCCN5CCOCC5)ccc24)CCC3)nc1"
recorded_value = 0.0259

[[record]]
compound = "O=c1oc2c(O)c(O)cc3c(=O)oc4c(O)c(O)cc1c4c23"
recorded_value = -0.0157

[[record]]
compound = "CN1CCC(CNc2ccc3ncc(-c4cccc(OC(F)(F)F)c4)n3n2)CC1 [SGI-1776 free base]"
recorded_value = -0.0159

[[record]]
compound = "C[S+]([O-])c1ccc(-c2nc(-c3ccc(F)cc3)c(-c3ccncc3)[nH]2)cc1 (centres undefined)"
recorded_value = 0.0651

[[record]]
compound = "Cc1nc(Nc2ncc(C(=O)Nc3c(C)cccc3Cl)s2)cc(N2CCN(CCO)CC2)n1"
recorded_value = -0.15

[[record]]
compound = "O=C(O)CCCc1ccccc1 [4-Phenylbutyrate]"
recorded_value = 0.00363

[[record]]
compound = "COc1cc2c(NC3CCN(C)CC3)nc(N3CCCN(C)CC3)nc2cc1OCCCN(C)C"
recorded_value = -0.094

[[record]]
compound = "N#Cc1ccc(NC(=O)Nc2ccccc2Br)c2n[nH]nc12"
recorded_value = -0.115

[[record]]
compound = "O=C(Nc1cccc(Cl)c1)Nc1ncc(CCNc2ncnc3ccsc23)s1"
recorded_value = 0.111

[[record]]
compound = "CC(C)C[C@H](NC(=O)[C@H](Cc1ccccc1)NC(=O)c1cnccn1)B(O)O"
recorded_value = 0.976

[[record]]
compound = "CCCCCCCCc1ccc(CCC(N)(CO)CO)cc1"
recorded_value = 0.0453

[[record]]
compound = "c1ccc2c(CCNc3ccc(Nc4ccncc4)cc3)c[nH]c2c1"
recorded_value = 0.0439

[[record]]
compound = "OC[C@H]1O[C@@H](n2cnc3c2N=CNC[C@H]3O)C[C@@H]1O"
recorded_value = -0.116

[[record]]
compound = "Fc1cc(-c2cccc3ncc(-c4cnn(C5CCNCC5)c4)nc23)cc(F)c1CN1CCOCC1"
recorded_value = -0.083

[[record]]
compound = "CCn1c(-c2nonc2N)nc2cnc(Oc3cccc(NC(=O)c4ccc(OCCN5CCOCC5)cc4)c3)cc21"
recorded_value = -0.145

[[record]]
compound = "Cc1cnc(-c2cnc(NCCNc3ccc(C#N)cn3)nc2-c2ccc(Cl)cc2Cl)[nH]1"
recorded_value = 0.0269


---

Consider the following molecules and their measured growth inhibition by drug plus 177Lu-lilotomab satetraxetan readings.
Test system: U-2932
Assay: growth inhibition by drug plus 177Lu-lilotomab satetraxetan (1 - RLU/untreated control) (fraction); higher = stronger inhibition
Conditions: 10 nM; time (day): 3; 177Lu-lilotomab satetraxetan 1 ug/ml
Where a name gives a salt, the structure may show the parent alone.
readout-label: growth inhibition by drug plus 177Lu-lilotomab satetraxetan

[[record]]
molecule = "CO[C@H]1/C=C\\C=C(/C)C(=O)NC2=CC(=O)C(NCCN(C)C)=C(C[C@@H](C)C[C@H](OC)[C@H](O)[C@@H](C)/C=C(\\C)[C@@H]1OC(N)=O)C2=O [17-DMAG HCl (Alvespimycin)]"
recorded_value = 0.0703

[[record]]
molecule = "CC1(COc2ccc3c(c2)ncn3-c2ccc3cccc(N4CCC(N)CC4)c3n2)COC1"
recorded_value = 0.0763

[[record]]
molecule = "COc1ccc(C2CC(c3ccccc3)=NN2c2ccc(S(N)(=O)=O)cc2)cc1 (stereo not drawn)"
recorded_value = 0.0153

[[record]]
molecule = "CC[C@]1(O)C[C@H]2CN(CCc3c([nH]c4ccccc34)[C@@](C(=O)OC)(c3cc4c(cc3OC)N(C=O)[C@H]3[C@@](O)(C(=O)OC)[C@H](OC(C)=O)[C@]5(CC)C=CCN6CC[C@]43[C@@H]65)C2)C1"
recorded_value = 0.958

[[record]]
molecule = "CC(C)CC(=O)Nc1n[nH]c2c1CN(C(=O)C1CCN(C)CC1)C2(C)C"
recorded_value = 0.0658

[[record]]
molecule = "Cc1nc(N)sc1-c1ccnc(Nc2ccc(N3CCOCC3)cc2)n1"
recorded_value = -0.0148

[[record]]
molecule = "CCCCCOC(=O)Nc1nc(=O)n([C@@H]2O[C@H](C)[C@@H](O)[C@H]2O)cc1F"
recorded_value = -0.101

[[record]]
molecule = "Cc1nn(-c2ccccc2)c(C)c1C=NN1CCN(Cc2ccccc2)CC1"
recorded_value = -0.0548

